Below, each entry is listed alongside its reported GI50.
# Tested on: DMS-114
# ASSAY_TEXT: NCI tumour cell line growth inhibition, 48 h
The source made the active and inactive calls. Cut-off read from the data, not from the text of the source: active = GI50 up to about 1.1 µM and inactive = higher.

Inquiry: Field request: GI50 | item: C=C(CN(C)C)C(=O)c1ccc(C)cc1C
Reply text: 21.6 µM (inactive)

Inquiry: # iterate: O=C(O)/C=C/n1c2ccccc2c(=O)c2ccccc21
Reply text: > 100 µM (inactive)

Inquiry: # iterate: CN(C)CC/C(=N\Nc1c(F)c(F)c(F)c(F)c1F)c1ccccc1
Reply text: 25.5 µM (inactive)

Inquiry: # iterate: C[N+](C)(C)CC1CCCC1=O (stereo unspecified)
Reply text: 3.24 µM (inactive)

Inquiry: # iterate: O[C@]12CCCC[C@H]1CCC2
Reply text: > 100 µM (inactive)

Inquiry: # iterate: CCN(CC)c1ccc(C2N3CCCCC3[C@@H]3c4[nH]c5ccccc5c4CCN23)cc1 (stereo partly specified)
Reply text: 14 µM (inactive)

* * *

# Tested on: UACC-257
# ASSAY_TEXT: NCI tumour cell line growth inhibition, 48 h
Calls of active or inactive are those of the source. Cut-off read from the data, not from the text of the source: active = GI50 up to about 1.1 µM and inactive = higher.
Below, each entry is listed alongside its reported GI50.

>>> result("CC(C)CC1[C@@H](OCc2ccccc2)COS(=O)N1Cc1ccccc1 (stereo not given in full)")
"30.7 µM (inactive)"
>>> result("CC1=C(N(C)C)C(=O)c2nc3n(c2C1=O)CCC3OC(N)=O (stereo not given)")
"14.2 µM (inactive)"
>>> result("C=C1C[C@@H]2O[C@H]3[C@H]4[C@@H](C[C@@H](C)[C@@H](OC(C)=O)[C@H]42)[C@@H](C)CO[C@@]3(C)[C@H](OC(=O)CCCCCCC)CC1=O")
"14.4 µM (inactive)"
>>> result("COc1ccc(/C(Cl)=C(\\C=O)c2ccc(Br)cc2)cc1OC")
"> 100 µM (inactive)"

Turning to the following molecule.
Inquiry: Field request: GI50 | item: OC1CC(O)O[C@H](c2ccccc2)C1 (stereo not given in full)
Reply text: > 100 µM (inactive)

* * *

# System: SNB-19
# ASSAY_TEXT: NCI tumour cell line growth inhibition, 48 h
Active and inactive are the calls of the source. Rule as the data show it: active = GI50 up to about 1.1 µM and inactive = higher.
Below, each entry is listed alongside its reported GI50.

Consider the reported GI50 for these molecules:
>>> result("COC(=O)c1cnn2c1ccc1ccccc12")
"> 100 µM (inactive)"
>>> result("C[C@H]1[C@H](C)CC[C@]2(C(=O)O)CCC3(COC(=O)/C=C/c4ccc(O)cc4)C(=CCC4[C@@]5(C)CC[C@H](O)C(C)(C)C5CC[C@]43C)[C@H]12 (stereo not given in full)")
"5.11 µM (inactive)"
>>> result("CC(C)C(C/C=C1/CC(CO)(COC(=O)C2CCCCC2)OC1=O)C(C)C (stereo not given)")
"15 µM (inactive)"
>>> result("CCOP(=O)(OCC)/C(C#N)=C\\c1ccc(OC(C)=O)cc1")
"> 100 µM (inactive)"
>>> result("CC[C@@]1(O)C(=O)OCc2c1cc1n(c2=O)Cc2c-1nc1ccccc1c2/C=N\\NC(=O)CN")
"< 0.0397 µM (active)"

Inquiry: // lookup GI50 | system=SNB-19 | key= NC(=O)C(=Cc1ccc(CP(=O)(O)O)cc1)C(N)=O
Reply text: > 100 µM (inactive)

Inquiry: # iterate: COC(=O)Nc1nc2cc(NC(=O)c3ccc(I)cc3)ccc2[nH]1
Reply text: > 100 µM (inactive)

Inquiry: # iterate: CCC1NCC(=O)c2c1[nH]c1ccccc21 (stereo not given)
Reply text: > 100 µM (inactive)

Inquiry: # iterate: Cc1cn(C2CC(O)C(CO[Si](C)(C)C(C)(C)C)OC2OC(C)C)c(=O)[nH]c1=O (stereo not given)
Reply text: 74.8 µM (inactive)

Inquiry: # iterate: [O-][S+]1c2ccccc2N=C(c2ccc3ccccc3c2)CC1c1ccccc1 (stereo not given)
Reply text: 17.9 µM (inactive)

* * *

# Test system: SF-539
# ASSAY_TEXT: NCI tumour cell line growth inhibition, 48 h
The source made the active and inactive calls. Cut-off read from the data, not from the text of the source: active = GI50 up to about 1.1 µM and inactive = higher.
Below, each entry is listed alongside its reported GI50.

>>> result("CCN1CCN(c2nc3ccc([N+](=O)[O-])cc3nc2C(=O)c2ccccc2)CC1")
"16.1 µM (inactive)"
>>> result("O=C(Nc1ccc(F)cc1)c1cc2ccc(O)cc2o/c1=N\\c1cccc(F)c1")
"52.7 µM (inactive)"
>>> result("C[C@]12CC[C@H](O)CC1=CC[C@@H]1C2CC[C@]2(C)C(=O)N(N)C(=O)CC12 (stereo not given in full)")
"> 100 µM (inactive)"
>>> result("Cc1c(N2CCOCC2)nc2ccc(Cl)cc2c1-c1ccccc1")
"61.9 µM (inactive)"

Inquiry: Field request: GI50 | item: Nc1ncnc2c1ccn2C1OC2COP(=O)(O)OC2C1O (stereo not given)
Reply text: 3.51 µM (inactive)

* * *

# System: CCRF-CEM
# ASSAY_TEXT: NCI tumour cell line growth inhibition, 48 h
Calls of active or inactive are those of the source. Rule as the data show it: active = GI50 up to about 1.1 µM and inactive = higher.
Below, each entry is listed alongside its reported GI50.

Inquiry: Field request: GI50 | item: CC(C)(C)/C(O)=C\c1nc2cc(F)c(F)cc2[nH]c1=O
Reply text: > 100 µM (inactive)

Inquiry: # iterate: Clc1ccc(Nc2nn3c(CCCCCCCCc4nnc5sc(Nc6ccc(Cl)cc6)nn45)nnc3s2)cc1
Reply text: 17.6 µM (inactive)

Inquiry: # iterate: COc1cc2c(c(O)c1OC)C(O)C1CCC(=O)N1C2c1cccc2ccccc12 (centres undefined)
Reply text: 81.7 µM (inactive)

Inquiry: # iterate: CC(C)(C)OC(=O)NC(Cc1ccc(OC(C)(C)C)cc1)C(=O)N[C@H]1CC[C@H](C(=O)O)C1 (some centres undefined)
Reply text: > 100 µM (inactive)

Inquiry: # iterate: O=C(C#Cc1ccccc1)Nc1ccccc1CC(c1c[nH]c2ccccc12)c1c[nH]c2ccccc12
Reply text: 3.3 µM (inactive)

Inquiry: # iterate: O=C(c1cc(Cl)ccc1Cl)N1CCN(c2cccc(Cl)c2)CC1
Reply text: 12.2 µM (inactive)

Inquiry: # iterate: O=C1OC2C(O)COC2(O)C1(O)C(C[N+](=O)[O-])c1ccc(Cl)cc1 (centres undefined)
Reply text: 3.45 µM (inactive)

Inquiry: # iterate: Cc1c(C(=O)CSc2nc3cc([N+](=O)[O-])ccc3[nH]2)c(=O)n(-c2ccccc2)n1C
Reply text: > 100 µM (inactive)

Inquiry: # iterate: O=S(=O)(/N=c1/[nH]c2ccccc2n1S(=O)(=O)c1ccccc1)c1ccccc1
Reply text: 31.3 µM (inactive)

* * *

# System: U-251
# ASSAY_TEXT: NCI tumour cell line growth inhibition, 48 h
Activity calls are given as the source filed them. Rule as the data show it: active = GI50 up to about 1.1 µM and inactive = higher.
Form entry, call: pick from T = active, F = inactive

Answered cases to consult:
>>> class("OCCCSc1ccccc1SCCCO")
"F"
>>> class("O=C(CSCC(=O)N/N=C\\c1ccc(F)cc1F)N/N=C\\c1ccc(F)cc1F")
"F"
>>> class("O=c1cc[nH]c(=O)[nH]1")
"F"
>>> class("Cc1ccc([N+](=O)[O-])c2c(NCCNC(=O)Cn3ccnc3[N+](=O)[O-])ccnc12")
"F"
>>> class("Cc1c2cc[n+](C)cc2c(C)c2c1[nH]c1ccc(Oc3ccccc3)cc12")
"T"

Inquiry: I'd appreciate the recorded outcome for CC(=O)NC1C(OCc2ccccc2)OC(CO)C(O)C1OCC(=O)NC(C)C(=O)NC(CCC(=O)NCCCCCC(=O)Nc1ccc2c(c1)CN1C(=O)c3ccccc3C1=N2)C(N)=O (stereo not given) from this test.
Reply text: F

Inquiry: # iterate: CCOc1cc(-c2nc3ccccn3c2/N=C/c2cc(Br)ccc2O)ccc1O
Reply text: F

* * *

# System: RPMI-8226
# ASSAY_TEXT: NCI tumour cell line growth inhibition, 48 h
The source made the active and inactive calls. Cut-off read from the data, not from the text of the source: active = GI50 up to about 1.1 µM and inactive = higher.
Form entry, call: pick from active, inactive

Inquiry: I'd appreciate the recorded outcome for C[C@]12CC[C@H]3[C@@H](CC[C@]4(O)C[C@@H](O)CC[C@]34C=O)[C@@]1(O)CC[C@@H]2C1=CC(=O)OC1 from this test.
Reply text: active

Inquiry: # iterate: COc1ccc(Cc2ccccc2C(=O)O)c2ccccc12
Reply text: inactive

Inquiry: # iterate: COc1ccc(/C(Cl)=C/c2cc(OC)ccc2OC)cc1
Reply text: inactive

Inquiry: # iterate: CCOC(=O)[C@H]1Nc2ccc(Cl)cc2[C@H]2CCC[C@@H]12
Reply text: inactive

Inquiry: # iterate: Nc1ccc(C2=Nc3ccccc3SC(c3ccccc3O)C2)cc1 (configuration not stated)
Reply text: inactive

Inquiry: # iterate: CCOC(=O)NC(Nc1ccc([N+](=O)[O-])cc1)(C(F)(F)F)C(F)(F)F
Reply text: inactive

Inquiry: # iterate: Cc1c(O)c(=O)ccn1CCO
Reply text: inactive

* * *

Below, each entry is listed alongside its reported GI50.
# System: M14
# ASSAY_TEXT: NCI tumour cell line growth inhibition, 48 h
Structures can show the parent of a compound that is named as a salt. Active and inactive are the calls of the source. No stated cut-off is given here; in the data, active = GI50 up to about 1.1 µM and inactive = higher.

Consider the reported GI50 for these compounds:
>>> result("O=C(O)CCSC(=O)Nc1ccc(/N=N/c2ccccc2)cc1")
"> 100 µM (inactive)"
>>> result("CCN1CCN(c2nc3ccc([N+](=O)[O-])cc3nc2C(=O)c2ccccc2)CC1")
"12.4 µM (inactive)"
>>> result("COc1cc2c(cc1OC)C(=O)C(C1=C(SC(=N)N)C(=O)c3cc(OC)c(OC)cc31)C2 (stereo not given)")
"> 100 µM (inactive)"

Inquiry: Field request: GI50 | item: CN1[C@@H]2C[C@@H](OC(=O)[C@H](CO)c3ccccc3)C[C@H]1[C@@H]1O[C@@H]12 [SCOPOLAMINE HYDROBROMIDE]
Reply text: > 100 µM (inactive)

Inquiry: # iterate: COc1c(CC=C(C)C)c(O)c(C(CC(C)C)c2c(O)c3c(c(C(C)=O)c2O)OC(C(C)(C)O)C3)c(O)c1C(C)=O (stereo not given)
Reply text: 6.05 µM (inactive)

Inquiry: # iterate: O=C1OC(C2Cc3ccc4c(c3C2=O)CCCC4)c2ccccc21 (stereo not given)
Reply text: 50.4 µM (inactive)

Inquiry: # iterate: CC(=O)O[C@H]1CC[C@H]2[C@@H]3CC[C@H]4Nc5c(cnn5S(C)(=O)=O)C[C@]4(C)[C@H]3CC[C@]12C
Reply text: 91.4 µM (inactive)

Inquiry: # iterate: NC(=O)C(=Cc1ccc(CP(=O)(O)O)cc1)C(N)=O
Reply text: > 100 µM (inactive)

Inquiry: # iterate: COc1ccc(C2(c3ccc(OC)cc3)OC(=O)c3cccc4cccc2c34)cc1
Reply text: 3.78 µM (inactive)

Inquiry: # iterate: Clc1nc(Cl)c(Cc2ccccc2)c(Cl)n1
Reply text: 2.82 µM (inactive)

Inquiry: # iterate: CCOC(=O)Cn1nc2ccc(Nc3nc4ccccc4nc3C(=O)OCC)cc2n1
Reply text: > 100 µM (inactive)

Inquiry: # iterate: O=C(O)CNCc1c2ccccc2[n+]([O-])c2ccccc12
Reply text: > 100 µM (inactive)

Inquiry: # iterate: Oc1cnc2c(O)cccc2c1 [JINEOL]
Reply text: 24.5 µM (inactive)

Inquiry: # iterate: C[C@H]1[C@H](C)CC[C@]2(C(=O)O)CCC3(COC(=O)/C=C/c4ccc(O)cc4)C(=CCC4[C@@]5(C)CC[C@H](O)C(C)(C)C5CC[C@]43C)[C@H]12 (stereo not given in full)
Reply text: 11.2 µM (inactive)

Inquiry: # iterate: Cc1c(C(=O)c2ccccc2C(=O)O)c2ccccc2n1C
Reply text: > 100 µM (inactive)

Inquiry: # iterate: COc1ccc(OC)c(/C=C2\CCc3ccccc3C2=O)c1
Reply text: 3.59 µM (inactive)
